TEST SUMMARY: background-corrected fluorescence of 3'-dye-labeled ssDNA relative to brightest sequence (3'-GCGCG) (fraction); higher = brighter dye fluorescence (less quenching)
RUN CONDITIONS: dye: Cy5 (3' terminal)
Would you mind labelling by background-corrected fluorescence? At or over 0.4 is T, under is F.

Please review the entries below; each comes with its answer.
TTTTTTGATCAGCATGCTCATTTTTTTTTTTTTTTCGTAG [GATGC] : T
TTTTTTGCTGCTCATGATCATTTTTTTTTTTTTTTAAGCG [GCGAA] : T
TTTTTTGATGATGCGCATGCTTTTTTTTTTTTTTTCCATA [ATACC] : F
TTTTTTGATGCTGAGCAGCATTTTTTTTTTTTTTTCACTT : F
TTTTTGCATCATCATGCTGCTTTTTTTTTTTTTTTTGGAA [AAGGT] : T
TTTTTTGATGATCAGCATGCTTTTTTTTTTTTTTTCCGTA [ATGCC] : T
TTTTTTGAGCATGATCAGCATTTTTTTTTTTTTTTCTCGT [TGCTC] : T

Moving on to the next sequence.
Query: Can TTTTTTGATGAGCATGATGATTTTTTTTTTTTTTTCCTCC be said to have background-corrected fluorescence at or above 0.4?
Reply: F

###

TEST SUMMARY: background-corrected fluorescence of 3'-dye-labeled ssDNA relative to brightest sequence (3'-GCGCG) (fraction); higher = brighter dye fluorescence (less quenching)
RUN CONDITIONS: dye: Cy3 (3' terminal)
QUANTITY: background-corrected fluorescence
// keep it numeric: no unit symbol after the value

Worked set:
TTTTTTGAGCATCAGCATCATTTTTTTTTTTTTTTCTGTG [GTGTC] : 0.559
TTTTTGCATCATGCTGATGATTTTTTTTTTTTTTTTGACC [CCAGT] : 0.418
TTTTTGCATCATGATGAGCATTTTTTTTTTTTTTTTGCCT [TCCGT] : 0.444
TTTTTTGCTGATGATCATGATTTTTTTTTTTTTTTACCGC [CGCCA] : 0.592
TTTTTGCATGAGCATCATGATTTTTTTTTTTTTTTTCTGC [CGTCT] : 0.491

Query: Would you mind telling me what background-corrected fluorescence value was observed for TTTTTTGCTGCGCATGCTCATTTTTTTTTTTTTTTAATAG [GATAA] ?
Reply: 0.535

Query: Next up: TTTTTTGATCAGCATGAGCATTTTTTTTTTTTTTTCGTCT [TCTGC]
Reply: 0.485

Query: Next up: TTTTTTGATGCTGCTGAGCATTTTTTTTTTTTTTTCAACT
Reply: 0.53

Query: Next up: TTTTTTGATGCGCAGCATGCTTTTTTTTTTTTTTTCATTA [ATTAC]
Reply: 0.554

Query: Next up: TTTTTTCATCATGCTGCGCATTTTTTTTTTTTTTTGGAAT [TAAGG]
Reply: 0.594

Query: Next up: TTTTTTGATCATCATCATCATTTTTTTTTTTTTTTCGGGG [GGGGC]
Reply: 0.673

###

TEST SUMMARY: background-corrected fluorescence of 3'-dye-labeled ssDNA relative to brightest sequence (3'-GCGCG) (fraction); higher = brighter dye fluorescence (less quenching)
RUN CONDITIONS: dye: Cy3 (3' terminal)
Classification scheme (background-corrected fluorescence): bin 1 = under 0.5, bin 2 = from 0.5 up to 0.6, bin 3 = 0.6 and over

Please review the entries below; each comes with its answer.
TTTTTTGATCATCAGCATCATTTTTTTTTTTTTTTCGGTG [GTGGC] : bin 2
TTTTTTCATCATCATCATGATTTTTTTTTTTTTTTGGGGC [CGGGG] : bin 3
TTTTTGCATCAGCAGCATGATTTTTTTTTTTTTTTTGTTC [CTTGT] : bin 1
TTTTTTGCGCATGATGAGCATTTTTTTTTTTTTTTATCCT [TCCTA] : bin 1
TTTTTTGCGCAGCATGCTGATTTTTTTTTTTTTTTATTAC [CATTA] : bin 1

Query: Class? Entry: TTTTTTCATCATGCGCATGATTTTTTTTTTTTTTTGGATC [CTAGG]
Reply: bin 1

Query: Next up: TTTTTTGCTCAGCAGCATGCTTTTTTTTTTTTTTTAGTTA [ATTGA]
Reply: bin 2

Query: Next up: TTTTTTGATCATGCTCATCATTTTTTTTTTTTTTTCGAGG [GGAGC]
Reply: bin 3

Query: Next up: TTTTTGCATCATGCGCAGCATTTTTTTTTTTTTTTTGATT [TTAGT]
Reply: bin 2

Query: Next up: TTTTTGCATGATGAGCATCATTTTTTTTTTTTTTTTCCTG [GTCCT]
Reply: bin 1

###

Recorded measurements of background-corrected fluorescence, one per entry
TEST SUMMARY: background-corrected fluorescence of 3'-dye-labeled ssDNA relative to brightest sequence (3'-GCGCG) (fraction); higher = brighter dye fluorescence (less quenching)
RUN CONDITIONS: dye: Cy3 (3' terminal)

TTTTTTGATGATGATCATGCTTTTTTTTTTTTTTTCCCGA [AGCCC] : 0.629

Query: Would you mind telling me what background-corrected fluorescence value was observed for TTTTTTGATGATGATGCTCATTTTTTTTTTTTTTTCCCAG [GACCC] ?
Reply: 0.504

Query: Next up: TTTTTTGCTGCTCATCAGCATTTTTTTTTTTTTTTAAGGT [TGGAA]
Reply: 0.658

Query: Next up: TTTTTTCATCATGCTGAGCATTTTTTTTTTTTTTTGGACT [TCAGG]
Reply: 0.508

Query: Next up: TTTTTTGATGCGCATCATCATTTTTTTTTTTTTTTCATGG [GGTAC]
Reply: 0.639

###

TEST SUMMARY: background-corrected fluorescence of 3'-dye-labeled ssDNA relative to brightest sequence (3'-GCGCG) (fraction); higher = brighter dye fluorescence (less quenching)
RUN CONDITIONS: dye: Cy5 (3' terminal)
QUANTITY: background-corrected fluorescence

Worked set:
TTTTTTGCTGATGATGCTGATTTTTTTTTTTTTTTACCAC [CACCA] : 0.286
TTTTTTGAGCATGATGCTGATTTTTTTTTTTTTTTCTCAC [CACTC] : 0.314
TTTTTTGCTCAGCATGATCATTTTTTTTTTTTTTTAGTCG [GCTGA] : 0.444
TTTTTTGATGATCATGATGCTTTTTTTTTTTTTTTCCGCA [ACGCC] : 0.475
TTTTTTGAGCATCATCATCATTTTTTTTTTTTTTTCTGGG [GGGTC] : 0.563
TTTTTTGATGCTGATCATGCTTTTTTTTTTTTTTTCACGA [AGCAC] : 0.471
TTTTTGCATGATGATCATCATTTTTTTTTTTTTTTTCCGG [GGCCT] : 0.539
TTTTTTCATGCTCATGATCATTTTTTTTTTTTTTTGAGCG [GCGAG] : 0.526

Query: Would you mind telling me what background-corrected fluorescence value was observed for TTTTTTGCGCATCATGCTGATTTTTTTTTTTTTTTATGAC [CAGTA] ?
Reply: 0.376

Query: Next up: TTTTTGCATGATGCTGATGATTTTTTTTTTTTTTTTCACC [CCACT]
Reply: 0.265

###

Recorded measurements of background-corrected fluorescence, one per entry
TEST SUMMARY: background-corrected fluorescence of 3'-dye-labeled ssDNA relative to brightest sequence (3'-GCGCG) (fraction); higher = brighter dye fluorescence (less quenching)
RUN CONDITIONS: dye: Cy5 (3' terminal)
// keep it numeric: no unit symbol after the value

Worked set:
TTTTTTGCTGATCATGATCATTTTTTTTTTTTTTTACGCG [GCGCA] : 0.876
TTTTTGCAGCAGCAGCATCATTTTTTTTTTTTTTTTTTTG [GTTTT] : 0.334

Query: Would you mind telling me what background-corrected fluorescence value was observed for TTTTTGCAGCATCATGAGCATTTTTTTTTTTTTTTTTGCT [TCGTT] ?
Reply: 0.361

Query: Next up: TTTTTTGCGCATCATGATGATTTTTTTTTTTTTTTATGCC [CCGTA]
Reply: 0.319

Query: Next up: TTTTTGCATGCTGATCATGCTTTTTTTTTTTTTTTTACGA [AGCAT]
Reply: 0.491

###

TEST SUMMARY: background-corrected fluorescence of 3'-dye-labeled ssDNA relative to brightest sequence (3'-GCGCG) (fraction); higher = brighter dye fluorescence (less quenching)
RUN CONDITIONS: dye: Cy5 (3' terminal)
Would you mind labelling by background-corrected fluorescence? At or over 0.4 is Yes, under is No.

TTTTTTGAGCATGATGATCATTTTTTTTTTTTTTTCTCCG [GCCTC] : Yes
TTTTTTGATCATGCTCATGCTTTTTTTTTTTTTTTCGAGA [AGAGC] : Yes
TTTTTTCATGCTGATGATCATTTTTTTTTTTTTTTGACCG [GCCAG] : Yes
TTTTTGCAGCATGATGCTGATTTTTTTTTTTTTTTTTCAC [CACTT] : No
TTTTTGCAGCAGCATGATGATTTTTTTTTTTTTTTTTTCC [CCTTT] : No

Query: Can TTTTTTGATGCTCAGCATCATTTTTTTTTTTTTTTCAGTG [GTGAC] be said to have background-corrected fluorescence at or above 0.4?
Reply: Yes

Query: Next up: TTTTTTGCGCATGCTGCTCATTTTTTTTTTTTTTTATAAG [GAATA]
Reply: Yes

Query: Next up: TTTTTTCATCATCATGATGATTTTTTTTTTTTTTTGGGCC [CCGGG]
Reply: No

Query: Next up: TTTTTGCAGCAGCATGCTGCTTTTTTTTTTTTTTTTTTAA [AATTT]
Reply: Yes
